Reference source for all entries: ChEMBL document CHEMBL3045489

- Tested on: Oculimacula yallundae
- assay_protocol: Antifungal activity against Oculimacula yallundae assessed as inhibition of radial growth on potato dextrose
- Assay type: functional, organism-based
test_readout: EC50 (µg/mL)
Entry rule: numbers only, all in µg/mL.

compound	EC50 [µg/mL]
Clc1ccc(C(COC/C=C/c2ccccc2)Cn2cncn2)c(Cl)c1 (racemic)	1.3

Task item: GET EC50 | system: Oculimacula yallundae | item: C=C(C)COCC(Cn1cncn1)c1ccc(Cl)cc1Cl (racemic)
Reply: 0.5

Task item: GET EC50 | system: Oculimacula yallundae | item: C#CCOCC(Cn1cncn1)c1ccc(Cl)cc1Cl (configuration not stated)
Reply: 0.5

* * *

- System: Oculimacula yallundae
- assay_protocol: Antifungal activity against Oculimacula yallundae assessed as inhibition of radial growth on potato dextrose
- Assay type: functional, organism-based
Label 1 when EC50 is strictly below 0.6 µg/mL; at or above that, label 0.

molecule	group
Clc1ccc(C(COCc2ccc(OCc3cccc(OCc4ccccc4)c3)cc2)Cn2cncn2)c(Cl)c1 (racemic)	0
CC(C)=CCOCC(Cn1cncn1)c1ccc(Cl)cc1Cl (racemic)	0
Clc1ccc(C(COCc2ccc(OCc3ccc(OCc4ccccc4)cc3)cc2)Cn2cncn2)c(Cl)c1 (racemic)	1
C=C(Cl)COCC(Cn1cncn1)c1ccc(Cl)cc1Cl (racemic)	1

Task item: Is 0.6 µg/mL strictly greater than the molecule's reported EC50? molecule: Clc1ccc(C(COCc2cccs2)Cn2cncn2)c(Cl)c1 (racemic)
Reply: 0

Task item: Is 0.6 µg/mL strictly greater than the molecule's reported EC50? molecule: Clc1ccc(C(COCCCc2ccccc2)Cn2cncn2)c(Cl)c1 (racemic)
Reply: 0

Task item: Is 0.6 µg/mL strictly greater than the molecule's reported EC50? molecule: OCCCOCC(Cn1cncn1)c1ccc(Cl)cc1Cl (racemic)
Reply: 0

Task item: Is 0.6 µg/mL strictly greater than the molecule's reported EC50? molecule: FC(F)C(F)(F)OCC(Cn1cncn1)c1ccc(Cl)cc1Cl (centres undefined)
Reply: 1
